procedureText: nonselective transcriptional activators, VP16 reporter – cell-based, pG5luc, luminescence, high throughput, counter-screen for SMARCA2 (BRM) activator project (AID 686939)
conditionContext: HEK293 GAL4-VP16 pG5luc reporter, luciferase luminescence; at 9.1 µM; hits give high values; scaled: DMSO wells 0%, SAHA wells 100%
Screen size: about 3,500 compounds; about 1,400 (40%) were called active. So high a share suggests a set chosen from earlier hits. These entries were drawn from the full list.
valueKind: activation

Look up activation: "Cc1noc(C)c1S(=O)(=O)N(C)C[C@H]1Oc2c(NC(=O)Nc3ccc4c(c3)OCO4)cccc2C(=O)N([C@H](C)CO)C[C@@H]1C"
0.03% (inactive)

Please answer likewise for "COc1ccc(C(=O)Nc2ccc3c(c2)OCO3)cc1OC"
10.2% (active)

Next compound: "Cc1nnc(NC(=O)Cn2c(=O)sc3ccccc32)s1"
0.78% (inactive)

And then "COc1ccc(C)cc1S(=O)(=O)N(CC(=O)Nc1cccc([N+](=O)[O-])c1)c1ccc(C)cc1" , what is it?
-1.27% (inactive)

Similarly, "O=C(Nc1cccc([N+](=O)[O-])c1)c1ccc2c(c1)OCO2" ?
8.02% (active)

###

procedureText: nonselective transcriptional activators, VP16 reporter – cell-based, pG5luc, luminescence, high throughput, counter-screen for SMARCA2 (BRM) activator project (AID 686939)
conditionContext: HEK293 GAL4-VP16 pG5luc reporter, luciferase luminescence; at 9.1 µM; scaled: DMSO wells 0%, SAHA wells 100%
Hit rate of the full screen: of about 3,500 compounds, about 1,400 (40%) were called active.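 The calls were made as follows: active = activation above the solvent-only control well mean plus 3 SD, averaged across control plates (cut at about 5.2% in these data); inactive = the rest.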 The set was probably picked from earlier hits. Only a sample is shown.
The reply should name one outcome from 1.0 = active, 0.0 = inactive

Give the logged outcome of this assay for the following compound: "Cc1n[nH]c(=O)nc1N/N=C/c1cccs1"
0.0

Similarly, "Cc1nc(-c2nnc(SCC(=O)Nc3cc(C(F)(F)F)cc(C(F)(F)F)c3)n2C)cs1" ?
0.0

Likewise for "O=c1c2c(nc3n1CCCCC3)sc1c(O)cccc12" ?
1.0

Next entry: "Fc1ccc(CNc2nc3ccccc3n3nnnc23)cc1"
0.0

Same for CCOC(=O)C(C)n1cnc2c(nnn2-c2cccc(OC)c2)c1=O (stereo not drawn)
0.0

Further, for "Cc1ccc(C(=O)Nc2nc3ccc(Cl)cc3s2)o1" ?
1.0

How about this compound: "Cc1noc(C)c1/C=N/Nc1ccc2ccccc2n1"
1.0

Same for "CCOC(=O)c1sc2nc(CSc3ccccc3)[nH]c(=O)c2c1C"
0.0

And the next one, "O=C(NC1CCCC1)C(=O)c1c[nH]c2ccccc12" ?
1.0

Moving on to the next compound: "COc1ccc(C(=O)N/N=c2\oc3ccccc3cc2C(N)=O)cc1"
0.0

Now give it for "CC(C)C[C@H]1CNC(=O)C(=O)N1C[C@H]1CCCN1C[C@H](Cc1ccc(O)cc1)N1C[C@H](CC(C)C)N(CC2CCCCCC2)C(=O)C1=O" too.
0.0

Ok, now "CCCn1nc(C(=O)Nc2ccc3nc(C)sc3c2)c2ccccc2c1=O"
0.0

How about "O=C(Nc1ccc2c(c1)CCC2)c1ccc(Br)s1" ?
1.0

Next compound up: "Cn1c(-c2ccc(F)cc2)cc2onc(-c3ccccc3Cl)c2c1=O"
1.0

And the next one, O=C(c1cccs1)C1C(c2ccc(Br)cc2)NC(=S)NC1(O)C(F)(F)F (stereo not drawn) ?
0.0

Another compound to look at: "O=C(c1cc(-c2ccc(O)cc2)on1)N1CCOCC1"
1.0

# repeat for "COc1ccccc1C1=Nc2cccc3cccc(c23)N1"
0.0

Moving on to "Cc1ccccc1C#CC1=CC(=O)CC(C)(C)C1"
0.0

Similarly, "CC(=O)c1ccc(NC(=O)c2sc3nc4n(c(=O)c3c2C)CCCCC4)cc1" ?
1.0

And CN(C)C(CNC(=O)c1ccc(OCc2cn3ccccc3n2)cc1)c1ccco1 (stereo not drawn) ?
0.0

What do you get for "O=C(N[C@H]1CC[C@H](CC(=O)N2CCCCC2)O[C@@H]1CO)c1cccc(F)c1" ?
0.0

Also check "C=CC(=O)OCCOCCOCCOCCOC(=O)C=C"
0.0

Param item: "CC(C)(C)C(=O)CSc1nc2ccccc2o1"
1.0
